Data origin: PubChem BioAssay (NCI)

# Tested on: NCI-H226 lung
# Protocol Notes: NCI-60 one-dose screen, 48 h
# Stated Conditions: 10 µM unless noted
About 83,000 compounds went through this panel and 20% of them were active in at least one assay; those are over-represented in the sample as a whole. Active and inactive are the calls of the source. Rule for the calls: active = growth percent below 10; inactive = the rest.
Outcome field: choose from T = active, F = inactive

Recorded results for 5 compounds are shown here.
{"Compound": "O=C(c1cccc(C(=O)c2ccc3c4c(cccc24)C(=O)N(c2ccccc2)C3=O)c1)c1ccc2c3c(cccc13)C(=O)N(c1ccccc1)C2=O", "Study System": "NCI-H226 lung", "Class Label": "F"}
{"Compound": "COCC(N)=O", "Study System": "NCI-H226 lung", "Class Label": "F"}
{"Compound": "Cc1ccc(S(=O)(=O)NC(=O)NCCSSCCNC(=O)NS(=O)(=O)c2ccc(C)cc2)cc1", "Study System": "NCI-H226 lung", "Class Label": "F"}
{"Compound": "CC(c1ccccc1)N(C)C (stereo not given)", "Study System": "NCI-H226 lung", "Class Label": "F"}
{"Compound": "CCCOCc1cn[nH]n1", "Study System": "NCI-H226 lung", "Class Label": "F"}

Recorded call for "CC(=O)c1cccc(N(C)S(=O)(=O)c2ccc(C)cc2)c1" ?
F

Recorded call for "CCOC(OCC)C(=O)c1ccccc1" ?
F

Recorded call for "Cc1ccc(N)c(S(=O)(=O)O)c1" ?
F

###

# Tested on: NCI-H522 lung
# Protocol Notes: NCI-60 one-dose screen, 48 h (100 = growth as untreated, 0 = no growth, -100 = all killed)
# Stated Conditions: 10 µM unless noted
The panel holds about 83,000 compounds, 20% with a hit somewhere; the sample as a whole holds those more often.
Reported growth by item:
Numbers only here, please. The scale is %.

Example cases with answers are listed next.
{"Compound": "CC(=O)C1C(=O)C(=O)N(c2ccc(Cl)c(Cl)c2)C1=O (stereo not drawn)", "Study System": "NCI-H522 lung", "growth (%)": 103}
{"Compound": "O=C1NC(=O)/C(=C\\c2ccncc2)N1", "Study System": "NCI-H522 lung", "growth (%)": 94.7}
{"Compound": "CSc1cnc2ccccc2n1", "Study System": "NCI-H522 lung", "growth (%)": 80}
{"Compound": "CC(C)N(C(=O)c1ccccc1)C(C)C", "Study System": "NCI-H522 lung", "growth (%)": 101}
{"Compound": "CC(=O)OC(C)c1cccc(C#N)c1 (stereo not drawn)", "Study System": "NCI-H522 lung", "growth (%)": 103}
{"Compound": "CCOC(=O)c1ccc(C(C)(C)C)cc1", "Study System": "NCI-H522 lung", "growth (%)": 105}

GET /values?readout=growth&system=NCI-H522 lung&item= COC1(OC)C2(Cl)C(Cl)=C(Cl)C1(Cl)C1COCC12 (stereo not drawn)
79.5

GET /values?readout=growth&system=NCI-H522 lung&item= COC1OC(C(COC(C)=O)OC(C)=O)C(OC(C)=O)C(OC(C)=O)C1OC(C)=O (stereo not drawn)
103

GET /values?readout=growth&system=NCI-H522 lung&item= "Cc1cccc(-[n+]2noc(N)n2)c1"
50.9

GET /values?readout=growth&system=NCI-H522 lung&item= "O=C(NC(=S)N1CC=CCC1)c1ccccc1"
77.3

GET /values?readout=growth&system=NCI-H522 lung&item= "OCCOc1ccc(-c2cc(-c3ccccn3)nc(-c3ccccn3)c2)cc1"
-18.8

GET /values?readout=growth&system=NCI-H522 lung&item= "Cc1ccc(C)c2c1CCC2=O"
96.7

GET /values?readout=growth&system=NCI-H522 lung&item= COC(CCCl)c1ccc(Cl)cc1 (stereo not drawn)
74.6

###

# Tested on: SF-539 CNS
# Protocol Notes: NCI-60 one-dose screen, 48 h
# Stated Conditions: 10 µM unless noted
About 83,000 compounds went through this panel and 20% of them were active in at least one assay; those are over-represented in the sample as a whole. Calls of active or inactive are those of the source. Rule for the calls: active = growth percent below 10; inactive = the rest.
Outcome field: choose from active, inactive

Recorded results for 3 molecules are shown here.
{"Molecule": "Cn1c2ccccc2c2nnc(NCCCCO)nc21", "Class Label": "inactive"}
{"Molecule": "CN(C)c1ccc(O)c2c1CC1CC3C(N(C)C)C(=O)C(C(N)=O)=C(O)C3(O)C(=O)C1=C2O (stereo not drawn)", "Class Label": "inactive"}
{"Molecule": "Nc1ncnc2c1ncn2C1OC(CO)C2OC21 (stereo not drawn)", "Class Label": "inactive"}

Recorded call for "C=CCOc1ccc(Cl)cc1Cl" ?
inactive

Recorded call for "CCCCCCCCNC(=O)C(C)C" ?
inactive

Recorded call for "Cc1cccc2ccccc12" ?
inactive

Recorded call for "CCCCCCCCCc1ccc(OC(C)=O)cc1" ?
inactive

Recorded call for "CCOc1ccc(NC(=S)N2CCC(CCCC3CCN(C(=S)Nc4ccc(OCC)cc4)CC3)CC2)cc1" ?
inactive

Recorded call for "O=C1C=Cc2ccccc2/C1=C/c1[nH]c(=O)[nH]c1O" ?
inactive

Recorded call for "CCOC(C=O)OCC" ?
inactive

Recorded call for ClCC(Cl)C1CCC(Cl)C(Cl)C1 (stereo not drawn) ?
inactive

###

# Tested on: UO-31 renal
# Protocol Notes: NCI-60 one-dose screen, 48 h (100 = growth as untreated, 0 = no growth, -100 = all killed)
# Stated Conditions: 10 µM unless noted
The panel holds about 83,000 compounds, 20% with a hit somewhere; the sample as a whole holds those more often. Activity calls are given as the source filed them. The calls were made as follows: active = growth percent below 10; inactive = the rest.
Reported growth by item:

{"Compound": "CC(=O)c1ccc(C)cc1", "Recorded Measurement": "75.7% (inactive)"}
{"Compound": "CNc1ccccc1C(=O)N/N=C/C=C/c1ccccc1", "Recorded Measurement": "43.8% (inactive)"}
{"Compound": "O=S(=O)(O)C(C(I)I)S(=O)(=O)O", "Recorded Measurement": "89.6% (inactive)"}

GET /values?readout=growth&system=UO-31 renal&item= "OCCOc1ccc(-c2cc(-c3ccccn3)nc(-c3ccccn3)c2)cc1"
-14.5% (active)

GET /values?readout=growth&system=UO-31 renal&item= "O=C(Oc1ccccc1Cl)c1ccc(Cl)cc1Cl"
85.4% (inactive)

GET /values?readout=growth&system=UO-31 renal&item= "Nc1cc(N)ncn1"
94% (inactive)

###

# Test system: OVCAR-8 ovarian
# Protocol Notes: NCI-60 one-dose screen, 48 h
# Stated Conditions: 10 µM unless noted
Compounds without any hit were thinned out: in the full panel of roughly 83,000, 20% have a hit. Active and inactive are the calls of the source. The calls were made as follows: active = growth percent below 10; inactive = the rest.
Outcome field: choose from 1 (active), -1 (inactive)

Recorded results for 8 compounds are shown here.
{"Compound": "COc1ccc(Br)c2c1C(=O)CC2", "Class Label": -1}
{"Compound": "CC(=O)c1ccc(C)cc1", "Class Label": -1}
{"Compound": "CC(C)c1ccc(C(=O)OCCCl)cc1", "Class Label": -1}
{"Compound": "NC(=S)c1c(N)n(C2OC(CO)C(O)C2O)c2ncnc(N)c12 (stereo not drawn)", "Class Label": 1}
{"Compound": "C/C(O)=C(/C=N/C(=S)Nc1ccccc1)C(=O)Nc1ccccc1C", "Class Label": -1}
{"Compound": "O=C1NCC2CCCC1C2 (stereo not drawn)", "Class Label": -1}
{"Compound": "CCCCCCCCCCCCCCCCCCSC(=N)N", "Class Label": -1}
{"Compound": "Nc1nc(N)nc(N2CCCCC2)n1", "Class Label": -1}

Recorded call for "CCCCCC(=O)OCCC1CCCCC1" ?
-1

Recorded call for CS(=O)CC(=N\O)/C(CS(C)=O)=N\O (stereo not drawn) ?
-1

Recorded call for "O=S(=O)(O)c1ccc(O)c(C2CCCCC2)c1" ?
-1

Recorded call for CC(=O)OCC1OC(n2cnc3c(=S)nc(N)[nH]c32)C(OC(C)=O)C1OC(C)=O (stereo not drawn) ?
-1

Recorded call for COC1OC(C(O)C(O)CO)C(O)C(O)C1O (stereo not drawn) ?
-1

Recorded call for "C/C(O)=C(/C=N\C(=S)Nc1ccc(S(=O)(=O)Nc2nccs2)cc1)C(=O)Nc1ccccc1C" ?
-1

###

# Test system: NCI/ADR-RES ovarian
# Protocol Notes: NCI-60 one-dose screen, 48 h
# Stated Conditions: 10 µM unless noted
This is part of a sample that, as a whole, favours compounds with a hit. Of some 83,000 tested, about 20% had one in any assay. Calls of active or inactive are those of the source. How the source made its calls: active means growth percent below 10; inactive means the rest.
Outcome field: choose from true (1) (active), false (0) (inactive)

{"Compound": "C=C(C)[C@@H]1CC[C@]2(CO)CC[C@]3(C)[C@H](CC[C@@H]4[C@@]5(C)CC[C@H](O)C(C)(C)[C@@H]5CC[C@]43C)[C@@H]12", "Class Label": "true (1)"}

Recorded call for "O=C1C=CC(=O)C2=C1CCCC2" ?
false (0)

Recorded call for "CCNc1ncnc2[nH]ncc12" ?
false (0)

Recorded call for "CCOc1ccc(C(=O)O)cc1" ?
false (0)

Recorded call for CCCC(OC(C)=O)c1ccc2c(c1)OCO2 (stereo not drawn) ?
false (0)

Recorded call for C=CCC(OC(C)=O)c1ccc(C(C)C)cc1 (stereo not drawn) ?
false (0)

Recorded call for "CCN(CC)c1ccc2nc3ccc(N=Nc4ccc(N(C)C)cc4)cc3[n+](-c3ccccc3)c2c1" ?
true (1)

Recorded call for "COc1cc(N)c2ncccc2c1Cl" ?
false (0)

Recorded call for "CS(=O)(=O)c1ccc(/C=C\C(=O)O)cc1" ?
false (0)

Recorded call for "O=[N+]([O-])c1c(Cl)ncnc1Cl" ?
false (0)

Recorded call for "C=C(c1ccc(N(C)C)cc1)c1ccc(N(C)C)cc1" ?
true (1)

Recorded call for CN1CCCN(C(c2ccccc2)c2ccc(Br)cc2)CC1 (stereo not drawn) ?
false (0)

Recorded call for "CN1C(=O)NC(c2ccc(Cl)cc2)(c2ccc(Cl)cc2)C1=O" ?
false (0)
